These measurements were taken from patent US8846698B2.

Exercise: state measured pIC50 for each of the compounds provided.
biological target: UniProtKB P04629; assay: Isolated TRK enzyme assay (HTRF KinEASE-TK), TRKA; type: biochemical; conditions: read-out: Trka enzyme (IC50)
Sequence (P04629 441-796): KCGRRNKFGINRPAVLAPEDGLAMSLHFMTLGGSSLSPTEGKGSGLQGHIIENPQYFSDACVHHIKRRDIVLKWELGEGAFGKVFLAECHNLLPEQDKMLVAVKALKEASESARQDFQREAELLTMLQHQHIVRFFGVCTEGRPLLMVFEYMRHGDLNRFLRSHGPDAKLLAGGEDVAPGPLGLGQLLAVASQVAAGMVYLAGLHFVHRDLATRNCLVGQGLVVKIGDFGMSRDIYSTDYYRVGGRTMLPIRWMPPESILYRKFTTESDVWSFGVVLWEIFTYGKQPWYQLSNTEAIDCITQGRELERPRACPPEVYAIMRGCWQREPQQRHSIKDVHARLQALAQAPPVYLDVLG
Remember the convention: pIC50 equals -log10 of concentration in molar.

Given the compound CC(C)n1cc(C(=O)c2cncc(NC(=O)c3nncc4ccccc34)c2)c2cncnc21 [Example 470] , what is its reported pIC50?
6.78

Any idea what its pIC50 is? The compound is Cc1ccc2[nH]cc(CC(=O)Nc3cncc(C(=O)c4cn(C(C)C)c5ncncc45)c3)c2c1 [Example 141]
7.23

Which pIC50 is listed for CC(C)n1cc(C(=O)c2cncc(NC(=O)c3cnc4c(c3)OCCO4)c2)c2cncnc21 [Example 446] ?
6.09

May I ask what pIC50 has been recorded for CC(C)n1cc(C(=O)c2cncc(NC(=O)Cc3ccc(C#N)c(C(F)(F)F)c3)c2)c2cncnc21 [Example 72] ?
7.20
